Data provenance: patent US20240360228A1

Please provide measured % Positive cells for the entries that follow.
target: T1, human CCR8 (human, UniProt P51685 1-355); assay: flow blocking, PBMC CCR8+CD4+; competitor PE-AB15
T1 construct: Native CCR8 on human PBMC (CCR8+ CD3+ or CCR8+ CD4+ lymphocytes); also called chemokine (C-C motif) receptor 8
T1 sequence (P51685 whole entry): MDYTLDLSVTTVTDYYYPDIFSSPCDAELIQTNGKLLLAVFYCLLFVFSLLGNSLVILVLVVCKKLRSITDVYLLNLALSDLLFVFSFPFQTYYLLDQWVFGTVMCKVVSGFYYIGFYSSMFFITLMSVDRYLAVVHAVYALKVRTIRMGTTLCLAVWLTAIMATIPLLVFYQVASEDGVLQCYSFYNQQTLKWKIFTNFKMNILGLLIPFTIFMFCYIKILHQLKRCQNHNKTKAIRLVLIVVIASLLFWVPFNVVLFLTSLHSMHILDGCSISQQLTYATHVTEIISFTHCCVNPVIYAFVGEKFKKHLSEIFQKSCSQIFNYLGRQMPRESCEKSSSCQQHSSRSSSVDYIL
Give bare numbers, in %.

{"binder": "AB5 (antibody, V domains shown, Hybridoma monoclonal; Same VH/VL entries as AB6; also called antibody 5; clone 5) VH: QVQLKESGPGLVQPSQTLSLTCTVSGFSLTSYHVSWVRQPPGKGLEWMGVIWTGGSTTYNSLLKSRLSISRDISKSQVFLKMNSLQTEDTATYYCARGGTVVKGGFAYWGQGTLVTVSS VL: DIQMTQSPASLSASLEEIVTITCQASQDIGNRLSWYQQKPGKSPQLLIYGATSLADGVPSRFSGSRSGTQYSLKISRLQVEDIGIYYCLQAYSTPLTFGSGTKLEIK", "units": "%", "% Positive cells": 1.67}
{"binder": "AB3 (antibody, V domains shown, Hybridoma monoclonal; also called antibody 3; clone 3) VH: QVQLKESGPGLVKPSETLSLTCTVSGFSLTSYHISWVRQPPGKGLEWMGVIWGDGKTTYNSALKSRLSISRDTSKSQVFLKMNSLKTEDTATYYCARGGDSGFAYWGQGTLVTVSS VL: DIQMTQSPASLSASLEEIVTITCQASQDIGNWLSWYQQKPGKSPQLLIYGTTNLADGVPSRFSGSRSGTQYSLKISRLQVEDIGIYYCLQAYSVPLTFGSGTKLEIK", "units": "%", "% Positive cells": 1.39}

--- query ---
q: Please look up its % Positive cells: AB1 (antibody, V domains shown, Hybridoma monoclonal (mouse or rat); Same VH/VL entries as AB2; also called antibody 1; clone 1) VH: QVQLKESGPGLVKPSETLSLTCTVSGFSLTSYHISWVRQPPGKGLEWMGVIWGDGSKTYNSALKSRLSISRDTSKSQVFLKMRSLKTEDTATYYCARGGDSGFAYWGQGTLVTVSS VL: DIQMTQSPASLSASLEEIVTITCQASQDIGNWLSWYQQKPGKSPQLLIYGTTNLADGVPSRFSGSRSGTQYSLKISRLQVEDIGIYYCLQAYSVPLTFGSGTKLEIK
a: 1.68
